# test_system: T1, human claudin 6 (CLDN6) (human, UniProt P56747 1-220)
# T1 construct: also called human CLDN6; hCLDN6
# T1 sequence: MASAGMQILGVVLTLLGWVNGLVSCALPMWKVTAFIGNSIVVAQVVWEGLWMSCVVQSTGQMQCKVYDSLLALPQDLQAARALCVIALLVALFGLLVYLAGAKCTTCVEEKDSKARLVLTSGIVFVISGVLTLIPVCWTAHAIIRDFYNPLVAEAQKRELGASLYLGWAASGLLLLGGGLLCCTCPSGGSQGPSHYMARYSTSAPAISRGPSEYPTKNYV
# assay_procedure: FACS, PA-1 cells (endogenous CLDN6)
# Experimental: For affinity determination, CLDN6 over-expressing HEK293T cells and cancer cell line PA-1 which express high levels of human CLDN6 were used to evaluate the binding activity of BG87P related engineering variants. […] EC50 values for dose-dependent binding to CLDN6 expressing cell lines were determined by fitting the dose-response data to the four-parameter logistic model with GraphPad Prism. […]
experimental_readout: Top MFI Mean (MFI)
Give just the number in MFI; leave the unit off.

Take a look at these entries with their results.
BG87P-24 (antibody, V domains shown) VH: QVQLVQSGAEVKKPGASVKVSCKASGYSFTDYHINWVRQAPGQRLEWMGWIYPGSGYTKYNEKFKGRVTLTRDTSASTAYMELSSLRSEDTAVYYCARSGIYHYVSSYYFDHWGKGTTVTVSS VL: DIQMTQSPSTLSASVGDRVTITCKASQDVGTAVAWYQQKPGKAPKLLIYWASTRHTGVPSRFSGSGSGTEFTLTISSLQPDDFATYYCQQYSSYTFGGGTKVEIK    62400
BG87P-z0 (antibody, V domains shown) VH: QVQLVQSGAEVKKPGASVKVSCKASGYTFTDYHINWVRQAPGQRLEWMGWIYPGSGYTKYNEKFKVRVTITRDTSASTAYMELSSLRSEDTAVYYCARSGIYHYVSSYYFDHWGKGTTVTVSS VL: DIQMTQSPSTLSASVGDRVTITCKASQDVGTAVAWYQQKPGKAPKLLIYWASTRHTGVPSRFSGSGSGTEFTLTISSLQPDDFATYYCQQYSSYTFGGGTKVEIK    53200

Attention now shifts to the item below.
Read the entry BG87P-26 (antibody, V domains shown) VH: QIQLVQSGAEVKKPGASVKVSCKASGYSFTDYHINWVRQAPGQRLEWMGWIYPGSGYTKYNEKFKGRVTITRDTSASTAYMELSSLRSEDTAVYFCARSGIYHYVSSYYFDHWGKGTTVTVSS VL: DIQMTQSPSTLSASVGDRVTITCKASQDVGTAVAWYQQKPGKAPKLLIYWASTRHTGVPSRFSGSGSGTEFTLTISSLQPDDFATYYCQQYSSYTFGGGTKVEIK and write its reported Top MFI Mean. 68000
